Origin of the recorded values: PubChem BioAssay

test system: Sonic hedgehog protein (Shh); experiment: small-molecule binders of Shh protein, primary screen, biochemical, small-molecule microarray, 635/667 nm fluorescence (AID 1151); settings: small-molecule microarray binding, 635 nm fluorescence; higher = more signal;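 further: Shh protein binding to compounds spotted on small-molecule microarray slides; score combines spot fluorescence intensity with signal-to-noise across triplicate slides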
value.kind: composite z-score
// return just the number, without any unit appended

>>> observed_result("CC(C)C(=C=CC[C@@H](O)c1ccc(OCCO)cc1)C[C@@H](O)COCc1ccccc1")
2.09

# input Form: Entry = `O=C(c1ccccc1)N1C(=O)[C@@]2(Cc3ccccc31)N=C(c1ccc(OCCCO)cc1)O[C@H]2c1ccccc1` | System = Sonic hedgehog protein (Shh) | composite z-score = ____
# output 1.27

# input Form: Entry = `CC(C)C(=C=CC[C@H](O)c1ccc(OCCO)cc1)CCO` | System = Sonic hedgehog protein (Shh) | composite z-score = ____
# output 2.05

# input Form: Entry = CCC(CC)C(O)C1C=CC2C(=O)NC(=O)C2N1Nc1ccccn1 (stereo unspecified) | System = Sonic hedgehog protein (Shh) | composite z-score = ____
# output 0.186

# input Form: Entry = `COc1ccc([Si](C)(C)[C@H]2[C@H](CC(=O)N3Cc4ccccc4C[C@H]3CO)O[C@@]3(C(=O)N(Cc4cccc(N5CCC5=O)c4)c4ccccc43)[C@@H]2C)cc1` | System = Sonic hedgehog protein (Shh) | composite z-score = ____
# output 1.74

# input Form: Entry = `COc1ccc(C#Cc2ccc3c(c2)[C@]2(C(=O)N3)[C@H](C(=O)Nc3nc4ccccc4s3)[C@H]3C(=O)O[C@H](c4ccccc4)[C@H](c4ccccc4)N3[C@@H]2c2ccc(O)cc2)cc1` | System = Sonic hedgehog protein (Shh) | composite z-score = ____
# output 2.02

# input Form: Entry = `COC(=O)c1c(CC[C@@H](CO)NC(=O)NCCn2cc(C3(O)CCCC3)nn2)oc(C(C)=O)c1C(=O)OC` | System = Sonic hedgehog protein (Shh) | composite z-score = ____
# output -0.303

# input Form: Entry = `COCCOC(=O)N1C(=O)[C@@]2(c3cc(C#CCCO)ccc31)[C@H](C(N)=O)[C@H]1C(=O)O[C@H](c3ccccc3)[C@H](c3ccccc3)N1[C@@H]2c1ccc(O)cc1` | System = Sonic hedgehog protein (Shh) | composite z-score = ____
# output -0.412

# input Form: Entry = `C=CCOC(=O)[C@H]1[C@@H]2C(=O)O[C@@H](c3ccccc3)[C@@H](c3ccccc3)N2[C@@H](c2ccc(OCCOC(=O)[C@H]3C[C@H]4C(=O)N[C@@H](CCCCN(C)C)C(=O)N4[C@H]3c3ccc(O)cc3)cc2)[C@]12C(=O)Nc1ccc(I)cc12` | System = Sonic hedgehog protein (Shh) | composite z-score = ____
# output 1.96

# input Form: Entry = C=CCC(OC(C)=O)[C@@H]1[C@@H](N(Cc2cccc3ccccc23)C(=O)c2ccc(-c3ccccc3)cc2)c2cc(OCCCO)ccc2N1C(=O)c1ccc2ccccc2c1 (stereo partly specified) | System = Sonic hedgehog protein (Shh) | composite z-score = ____
# output 0.711

# input Form: Entry = `COCCOC(=O)N1C(=O)[C@@]2(c3cc(C#CCC(C(=O)OC)C(=O)OC)ccc31)[C@H](C(=O)N1CCN(c3ncccn3)CC1)[C@H]1C(=O)O[C@H](c3ccccc3)[C@H](c3ccccc3)N1[C@@H]2c1ccccc1OCCO` | System = Sonic hedgehog protein (Shh) | composite z-score = ____
# output 2.19

# input Form: Entry = `C=CC[C@@]12N=C(c3ccc(OCCCO)cc3)O[C@@H]1c1ccccc1N(C)C2=O` | System = Sonic hedgehog protein (Shh) | composite z-score = ____
# output 1.42

# input Form: Entry = `CCOC(=O)C1=C[C@@H](C(C)(C)C)N(S(=O)(=O)c2ccc(C)cc2)[C@H]1c1ccc(F)cc1` | System = Sonic hedgehog protein (Shh) | composite z-score = ____
# output 0.584

# input Form: Entry = CCC(CC)C(O)C1C=CC2C(=O)NC(=O)C2N1Nc1ccc(Cl)cc1Cl (stereo unspecified) | System = Sonic hedgehog protein (Shh) | composite z-score = ____
# output 0.463

# input Form: Entry = `COC(=O)[C@@]1(Cc2ccc(OC)cc2)[C@@H]2C(=CC(=O)[C@H]2CC(=O)C(=O)N2CCCC2)CN1C(=O)c1ccccc1` | System = Sonic hedgehog protein (Shh) | composite z-score = ____
# output -1.35

# input Form: Entry = `O=C1C[C@@](C(=O)NCCN2CCOCC2)(c2ccc([N+](=O)[O-])cc2)[C@@H](c2ccc(CO)cc2I)N1CC12CC3CC(CC(C3)C1)C2` | System = Sonic hedgehog protein (Shh) | composite z-score = ____
# output 2.14

* * *

The entries below come with measured z-score values attached.
test: osmotic lysis modulators in infected erythrocytes, primary screen, PSAC antagonist project, cell-based, P. falciparum Indochina, OD700, 3 h (AID 1156); settings: higher = more signal, called active from +8 up or from −8 down
Activity calls are given as the source filed them.

>>> observed_result("COCCOC(=O)N1C(=O)[C@@]2(c3cc(C#CCCO)ccc31)[C@H](C(=O)N1CCCCCCC1)[C@H]1C(=O)O[C@H](c3ccccc3)[C@H](c3ccccc3)N1[C@@H]2c1ccc(OCCO)cc1")
"-1.22 (inactive)"
>>> observed_result("O=C(CS)NCCCCCCNC(=O)[C@@H]1C[C@@H]2C(=O)N[C@@H](Cc3ccccc3)C(=O)N2[C@@H]1c1cccc(OCCO)c1")
"0.839 (inactive)"
>>> observed_result("COC(=O)[C@@]1(Cc2ccccc2)N=C(c2ccc(OCCCO)cc2)O[C@H]1c1ccccc1")
"0.737 (inactive)"

# input Reported z-score, compound `[N-]=[N+]=NCc1ccccc1C[C@]1(C(=O)N2CCCCC2)N=C(c2ccc(OCCCO)cc2)O[C@H]1c1ccccc1N=[N+]=[N-]` : ____
# output 3.55 (inactive)

# input Reported z-score, compound `COc1ccc(-c2cc3c(c(-c4ccc(Oc5ccccc5)cc4)n2)[Si](C(C)C)(C(C)C)OC3)cn1` : ____
# output 0.208 (inactive)

* * *

test system: Neuregulin-1 EGF-like domain; experiment: binders of neuregulin-1 EGF-like domain, primary screen, biochemical, small-molecule microarray, 635 nm fluorescence (AID 1081); conditions: small-molecule microarray binding, higher = more signal;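 further: binding of the protein to compounds printed on small-molecule microarray slides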
The entries below come with measured composite z-score values attached.
// return just the number, without any unit appended

>>> observed_result("COCCOC(=O)N1C(=O)[C@@]2(c3ccccc31)[C@H](c1ccc(O)cc1)N1[C@H](c3ccccc3)[C@H](c3ccccc3)OC(=O)[C@H]1[C@@H]2C(=O)Nc1nc2ccccc2s1")
1.11
>>> observed_result("CCOC(=O)C[C@H]1[C@H](OC(=O)c2ccc(C(=O)c3ccccc3)cc2)[C@@H](NC(=O)CC(C)C)c2cc(OCCCO)ccc2N1C(=O)c1ccc2ccccc2n1")
1.22
>>> observed_result("COCCOC(=O)N1C(=O)[C@@]2(c3ccccc31)[C@H](c1ccccc1OCCO)N1[C@H](c3ccccc3)[C@H](c3ccccc3)OC(=O)[C@H]1[C@@H]2C(=O)N1CCN(c2ncccn2)CC1")
1.18
>>> observed_result("O=C1C[C@@](C(=O)NC2CC2)(c2ccc([N+](=O)[O-])cc2)[C@@H](c2ccc(CO)cc2I)N1C1CCCCC1")
1.34
>>> observed_result("CO[C@H]1O[C@H](CO)[C@@H](OC(=O)Nc2cccc(F)c2)[C@H](OC(=O)Nc2ccccc2)[C@@H]1OC(=O)Nc1ccccc1")
1.19
>>> observed_result("C[C@H]1NC(=O)[C@@]23C(=O)N[C@@H](Cc4ccccc4)C2[C@H](C)[C@@]2(C)O[C@H]2C3/C=C/C/C=C\\CNC(=O)[C@@H]2CCCN2C1=O (stereo not given in full)")
0.909
>>> observed_result("O=C(N1CCCCC1)[C@]1(Cc2ccccc2)N=C(c2ccc(OCCCO)cc2)O[C@@H]1c1ccccc1")
0.884
>>> observed_result("COC(=O)[C@H](Cc1ccccc1)N[C@@H](/C=C/C1CC1)[C@H](O)Cc1ccccc1")
0.583
>>> observed_result("C[N+](C)(C)CCCCCCNC(=O)[C@@H]1C[C@@H]2C(=O)N[C@@H](Cc3ccccc3)C(=O)N2[C@@H]1c1cccc(OCCO)c1")
1.34
>>> observed_result("C=CCNC(=O)[C@H]1[C@@H]2C(=O)O[C@@H](c3ccccc3)[C@@H](c3ccccc3)N2[C@@H](c2ccccc2OCCO)[C@]12C(=O)Nc1ccc(C#CCCO)cc12")
0.537

# input Reported composite z-score, compound `O=C1C[C@@](C(=O)NCCN2CCOCC2)(c2ccc([N+](=O)[O-])cc2)[C@@H](c2ccc(CO)cc2I)N1CC12CC3CC(CC(C3)C1)C2` : ____
# output 1.37

# input Reported composite z-score, compound `COCCCNC(=O)[C@@H]1c2ccccc2C(=O)N(Cc2ccccc2Cl)[C@H]1c1ccc(CO)cc1` : ____
# output 1.48

# input Reported composite z-score, compound `C=C(CC1([C@@H](NP(=O)(c2ccccc2)c2ccccc2)[C@H]2C[C@@H]2CCCC)CC1)c1ccccc1` : ____
# output 0.843

# input Reported composite z-score, compound `O=C1N[C@@H](Cc2ccccc2)C(=O)N2[C@@H]1C[C@@H](C(=O)O)[C@H]2c1cccc(OCCO)c1` : ____
# output 1.38

# input Reported composite z-score, compound `NCCCCCCNC(=O)[C@@H]1C[C@@H]2C(=O)NCC(=O)N2[C@@H]1c1ccc(O)cc1` : ____
# output 1.41
